We begin with a simple list: items and their reported Ki.
molecular target: human α1d adrenergic receptor (Homo sapiens, UniProt P25100); construct: The entire coding region. of α1d (1719 bp); expressed in transfected cells; assay: Radioligand binding ([3H]prazosin) at cloned human α1d adrenergic receptor; conditions: LM(tk-) cell membranes, read-out: Binding affinities (pKi) α1d (converted)
Sequence (P25100 whole entry): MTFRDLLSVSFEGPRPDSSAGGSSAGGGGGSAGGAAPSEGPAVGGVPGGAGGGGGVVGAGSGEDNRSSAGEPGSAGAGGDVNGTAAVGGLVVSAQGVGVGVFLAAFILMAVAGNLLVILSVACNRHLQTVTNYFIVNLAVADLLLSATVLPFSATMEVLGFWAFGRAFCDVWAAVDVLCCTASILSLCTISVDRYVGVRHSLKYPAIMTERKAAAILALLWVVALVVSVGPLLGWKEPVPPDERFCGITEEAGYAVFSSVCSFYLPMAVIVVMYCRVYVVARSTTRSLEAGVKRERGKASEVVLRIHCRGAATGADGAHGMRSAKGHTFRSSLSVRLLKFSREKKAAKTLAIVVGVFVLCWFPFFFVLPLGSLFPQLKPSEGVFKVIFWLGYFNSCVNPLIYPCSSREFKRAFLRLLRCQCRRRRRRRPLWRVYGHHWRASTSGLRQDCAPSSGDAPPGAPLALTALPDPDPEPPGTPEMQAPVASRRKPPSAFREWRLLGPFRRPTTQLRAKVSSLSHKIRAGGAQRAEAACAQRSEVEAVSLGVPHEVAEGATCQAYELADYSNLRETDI

Look up Ki for this compound: `O=C1CC2(CCCC2)CC(=O)N1[C@@H](CN1CCN(c2cc(F)c(F)cc2F)CC1)c1ccccc1`
79.4 nM

Here is the next compound: `O=C1CC2(CCCC2)CC(=O)N1[C@H](Cc1ccccc1)CN1CCN(c2cc(F)c(F)cc2F)CC1`
79.4 nM

Here is the next compound: `C[C@H](CN1CCN(c2cc(F)ccc2F)CC1)N1C(=O)CC2(CCCC2)CC1=O`
0.794 nM

Next:
Look up Ki for this compound: `Cc1ccc(Cl)cc1N1CCN(CCN2C(=O)CC3(CCCC3)CC2=O)CC1`
39.8 nM

Where these numbers come from: patent US6706716B2
